Collected TGI values appear next to each entry.
system: SK-MEL-28 melanoma; test: NCI tumour cell line growth inhibition, 48 h

Study these solved cases before continuing.
- compound: "COc1ccc2cc3[nH]c(=O)cc(O)c3cc2c1OC"
  TGI: "> 100 µM"
- compound: "Cc1ccc(N2C(=O)C=C(C3=C(O)C(=O)N(c4ccc(C)cc4)C3=O)C2=O)cc1"
  TGI: "> 100 µM"
- compound: "Cc1ccc(NC2=C(Cl)C(=O)N(Cc3ccc(Cl)cc3)C2=O)cc1O"
  TGI: "44.4 µM"
- compound: "NC1CCC(Nc2nc(NCc3ccc(-c4ccccc4O)nc3)c3ncn(C4CCCC4)c3n2)CC1 (stereo not given)"
  TGI: "0.0713 µM"
- compound: "Oc1cc2c3c(c1)CCCN3CCC2"
  TGI: "> 10 µM"
- compound: "CN(C)CC1CN=C(N)O1 (stereo not given)"
  TGI: "> 100 µM"
- compound: "CN(C)CCNC(=O)c1cccc2nc3cc(Cl)ccc3nc12"
  TGI: "8.27 µM"
- compound: "CC(=O)[C@@H]1C/C(=C\\OCc2ccccc2)O[C@H]1C"
  TGI: "> 100 µM"

Turning to the following compound.
Find the recorded TGI belonging to `O=C(O)c1ccc(Oc2nccc(-c3c(-c4ccc(F)cc4)ncn3C3CCNCC3)n2)cc1` and report it. > 25 µM
